This section presents compounds with their documented enzyme activity, Grans values.
Tested on: granulocytes
Assay: peptidase activity in leukemia and non-leukemia patients, granulocytes (Table 6C)
Type: cell-based, human
Set-up: unit not given here
Conditions: P68 tachycardia
From the text: Artificial intelligence was used to analyze data of cellular enzyme functions, and determine normal and disease states. Peptidases were used to distinguish leukemia from non-leukemia (output pattern). For input patterns lymphocyte and granulocyte cell types were used with aminopeptidases, cathepsins and dipeptidylpeptidase enzyme activities. […]
Give the value as a plain number.

NC(=O)CC[C@H](N)C(=O)N[C@@H](CO)C(=O)Nc1ccc2c(c1)Oc1cc(NC(=O)[C@H](CO)NC(=O)[C@@H](N)CCC(N)=O)ccc1C21OC(=O)c2ccccc21 [QS, (H-L-Gln--Ser)2 Rho 110 .2TFA] = 0.33

Qu. Quickly give me recorded enzyme activity, Grans for C[C@H](N)C(=O)Nc1ccc2c(c1)Oc1cc(NC(=O)[C@H](C)N)ccc1C21OC(=O)c2ccccc21
Ans. 276.07

###

system: monocytes; experiment: aberrant enzyme activities in febrile children, monocytes (Table 7); format: cell-based, human; conditions: P101 Fever -- Unknown Origin
Readout Label: aberrant enzyme activity, MONOS

CC(C)C[C@H](N)C(=O)NCC(=O)Nc1ccc2c(c1)Oc1cc(NC(=O)CNC(=O)[C@@H](N)CC(C)C)ccc1C21OC(=O)c2ccccc21 [LG] = .smallcircle.

Qu. # return recorded aberrant enzyme activity, MONOS for input CC(C)[C@H](N)C(=O)N[C@@H](CCCCN)C(=O)Nc1ccc2c(c1)Oc1cc(NC(=O)[C@H](CCCCN)NC(=O)[C@@H](N)C(C)C)ccc1C21OC(=O)c2ccccc21 [VK, (Val-Lys)2 Rho 110]
Ans. .smallcircle.

###

system: granulocytes; test: enzyme activity with fluorogenic substrate, normal granulocytes (Table 3A); assay type: cell-based, human
Numbered stars: 1 amine (or outer) side, 2 acyl side, 3 side chain; on linkers, the order of the positions; unused ones are H or OH. Bridge positions count the residues as written; N and C are the ends. Peptide text beside a SMILES is read from it. I, II: the chains in the order shown. Rhodamine110 = O=C1OC2(c3ccc(N[*:1])cc3Oc3cc(N[*:2])ccc32)c2ccccc21
NORMAL LEUKOCYTE ENZYME ACTIVITY GRANS Mean values, listed per item
Give the value as a plain number.

CC(=O)Oc1cc2c(cc1Cl)C(c1ccccc1C(=O)O)c1cc(Cl)c(OC(C)=O)cc1O2 [DCFH-DA MES, reference compound] = 7.49
C[C@H](NC(=O)CNC(=O)[C@H](Cc1ccccc1)NC(=O)CN)C(=O)Nc1ccc2c(c1)Oc1cc(NC(=O)[C@H](C)NC(=O)CNC(=O)[C@H](Cc3ccccc3)NC(=O)CN)ccc1C21OC(=O)c2ccccc21 [GFGA, (Gly-Phe-Gly-Ala)2 Rho 110] (I: H-GFGA / II: H-GFGA; linker I:C-II:C via Rhodamine110) = 1.00
O=C(NCC(=O)N1CCC[C@H]1C(=O)Nc1ccc2c(c1)Oc1cc(NC(=O)[C@@H]3CCCN3C(=O)CNC(=O)OCc3ccccc3)ccc1C21OC(=O)c2ccccc21)OCc1ccccc1 [Z-GP-M] = 130.62

Qu. Give me measured NORMAL LEUKOCYTE ENZYME ACTIVITY GRANS Mean, please, for this compound: CC(C)[C@H](N)C(=O)N[C@@H](CCCCN)C(=O)Nc1ccc2c(c1)Oc1cc(NC(=O)[C@H](CCCCN)NC(=O)[C@@H](N)C(C)C)ccc1C21OC(=O)c2ccccc21 [VK-M, (Val-Lys)2 Rho 110 (modified)]
Ans. 4.31

Qu. Provide one value: measured NORMAL LEUKOCYTE ENZYME ACTIVITY GRANS Mean of CC(C)[C@H](N)C(=O)N[C@@H](CCCCN)C(=O)Nc1ccc2c(c1)Oc1cc(NC(=O)[C@H](CCCCN)NC(=O)[C@@H](N)C(C)C)ccc1C21OC(=O)c2ccccc21 [VK, (Val-Lys)2 Rho 110]
Ans. 5.10
